TARGET UNDER TEST: T1, Recombinant CD3epsilon/delta Fc fusion protein (Sino Biological) (human, UniProt P07766 23-126; P04234 22-105)
T1 construct: Bought reagent; also called recombinant CD3 fusion protein; human CD3 antigen; not shown: Fc of the bought fusion protein; not described
T1 sequence (P07766 23-126, stated change not applied, chain 1 of 2): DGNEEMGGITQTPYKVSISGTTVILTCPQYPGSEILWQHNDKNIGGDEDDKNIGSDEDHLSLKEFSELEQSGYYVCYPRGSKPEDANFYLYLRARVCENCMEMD
T1 sequence (P04234 22-105, stated change not applied, chain 2 of 2): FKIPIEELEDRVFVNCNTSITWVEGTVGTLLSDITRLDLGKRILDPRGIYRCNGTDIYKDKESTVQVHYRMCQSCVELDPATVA
PROTOCOL NOTES: SPR (ProteOn XPR36), CD3epsilon/delta Fc fusion captured on anti-Fc chip, variant injected for 240 s; kinetic constants printed above the sensorgrams
MEASURED PARAMETER: kon

>>> result_value("variant 19362, monovalent anti-CD3 scFv-heterodimeric Fc (VL hC3E-1_6L3b (D52N), VH hC3E-1) (Fc fusion, not shown: a dimerising Fc or GST; small tags and cut ends, scFv order VH-(GGGGS)3-VL on Fc chain A; chain B is Fc only; also called v19362) scFv: EVQLVESGGGLVQPGGSLRLSCAASGVTFNYYGMSWIRQAPGKGLEWVASITNSGGRIYYPDSVKGRFTISRENTQKTLYLQMNSLRAEDTAVYYCTLDGRDGWVAYWGQGTLVTVSSGGGGSGGGGSGGGGSNFMLTQPHSVSESPGKTVTISCKRNTGNIGSNYVNWYQQLPGTAPKTIIYRNDKRPDGVPDRFSGSIDSSSNSASLAISGLQSEDEADYYCQSYSSGFIFGGGTKLTVL")
"798000 M⁻¹ s⁻¹"
>>> result_value("variant 21831, monovalent anti-CD3 scFv-heterodimeric Fc (VL hC3E-1_1L1d, VH hC3E-1(N53S)) (Fc fusion, scFv order VH-(GGGGS)3-VL on Fc chain A; chain B is Fc only; also called v21831; not shown: Fc-only chain B is also left out) scFv: EVQLVESGGGLVQPGGSLRLSCAASGVTFNYYGMSWIRQAPGKGLEWVASITSSGGRIYYPDSVKGRFTISRENTQKTLYLQMNSLRAEDTAVYYCTLDGRDGWVAYWGQGTLVTVSSGGGGSGGGGSGGGGSQVVLTQPPSASGTPGQRVTISCKRNTGNIGSNYVNWYQQLPGTAPKLLIYRDDKRPDGVPDRFSGSKSGTSASLAISGLQSEDEADYYCQSYSSGFIFGGGTKLTVL")
"977000 M⁻¹ s⁻¹"
